Values were extracted from ChEMBL document CHEMBL5137095.

Reported values of IC50 for individual entries
TARGET_OR_SYSTEM: Cholinesterase (Equus caballus, UniProt P81908)
Sequence (P81908 whole entry): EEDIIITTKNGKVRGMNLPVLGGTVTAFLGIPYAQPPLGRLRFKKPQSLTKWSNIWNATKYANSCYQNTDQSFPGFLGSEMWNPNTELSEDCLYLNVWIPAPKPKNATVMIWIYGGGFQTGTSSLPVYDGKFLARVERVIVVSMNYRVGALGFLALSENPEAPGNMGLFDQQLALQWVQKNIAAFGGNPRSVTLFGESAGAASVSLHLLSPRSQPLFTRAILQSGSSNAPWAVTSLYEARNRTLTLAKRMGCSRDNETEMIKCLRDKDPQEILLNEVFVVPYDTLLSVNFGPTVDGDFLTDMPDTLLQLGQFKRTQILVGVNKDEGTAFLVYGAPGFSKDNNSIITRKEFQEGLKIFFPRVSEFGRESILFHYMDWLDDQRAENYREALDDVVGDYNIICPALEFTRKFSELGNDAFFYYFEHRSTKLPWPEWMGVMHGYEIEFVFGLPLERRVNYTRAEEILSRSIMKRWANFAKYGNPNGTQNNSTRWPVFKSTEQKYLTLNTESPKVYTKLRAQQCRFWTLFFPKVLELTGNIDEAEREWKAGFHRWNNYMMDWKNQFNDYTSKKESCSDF
TEST_DESCRIPTION: Inhibition of horse serum BChE using acetylthiocholine iodide or butyrylthiocholine iodide as substrate preincubated for 5 mins followed by substrate addition by Ellman's method
Report the value in nM with no unit label.

Past entries and their recorded results:
## Task Dear colleague, please send me the reported IC50 for "CCN(CC)Cc1ccccc1CNC(=O)c1ccc(C)c(NC(=O)c2ccc(F)cc2)c1" when you can.
## Result 0.38

## Task Find the measured IC50 of "CCN(CC)Cc1ccccc1CNC(=O)c1cccc(NC(=O)c2ccc(F)cc2)c1C" and report it.
## Result 0.14

## Task Note down IC50 recorded for "CCN(CC)Cc1ccccc1CNC(=O)c1cccc(C(=O)Nc2cccs2)c1"
## Result 1.19

## Task // Input: "CCN(CC)Cc1ccccc1CNC(=O)c1ccccc1NC(=O)c1ccc(F)cc1" . Output its IC50 only.
## Result 187

## Task Tell us which IC50 value is on record for "CCN(CC)Cc1ccccc1CNC(=O)c1cc(NC(=O)c2ccc(F)cc2)cc(C(F)(F)F)c1"
## Result 1.35

Further cases:
## Task Please give measured IC50 of the following entry: "CCN(CC)Cc1ccccc1CNC(=O)c1cc(NC(=O)c2ccc(F)cc2)cc([N+](=O)[O-])c1"
## Result 1.27

## Task Give reported IC50 value for "CCN(CC)Cc1ccccc1CNC(=O)c1cccc(NC(=O)c2ccc(C)cc2)c1"
## Result 77.3

* * *

TEST_DESCRIPTION: Inhibition of human BChE assessed as inhibition constant
TEST_READOUT: pKi
Expect pKi as a plain number equal to -log10 of the molar concentration.

## Task # return recorded pKi for input CCN(CC)C(C)CN1c2ccccc2Sc2ccccc21 (stereo unspecified)
## Result 7.70

* * *

TEST_DESCRIPTION: Plasma concentration in ICR mouse at 10 mg/kg, po measured at 1 hr by LC-MS analysis
Type: ADME, organism-based
TEST_READOUT: concentration at 1 h (ng/mL)
// note: answer is a bare numeric in ng/mL

## Task Provide one value: measured concentration at 1 h of "CCN(CC)Cc1ccccc1CNC(=O)c1cccc(NC(=O)c2ccc(F)cc2)c1"
## Result 20.9

* * *

TEST_DESCRIPTION: Cytotoxicity against rat PC-12 cells assessed as cell survival rate at 10 uM by MTT assay
Format: toxicity, cell-based
STATED_CONDITIONS: read-out: Activity
TEST_READOUT: viability at 10 µM

Observe how each entry below is paired with its result.
## Task For the compound "CCN(CC)Cc1ccccc1CNC(=O)c1cc(NC(=O)c2ccc(F)cc2)ccc1C" , give its reported viability at 10 µM.
## Result > 70%

## Task Supply viability at 10 µM value. Item: "CCN(CC)Cc1ccccc1CNC(=O)c1cccc(NC(=O)c2ccc(F)cc2)c1"
## Result > 70%

## Task Hello, please tell me recorded viability at 10 µM for this one: "CCN(CC)Cc1ccccc1CNC(=O)c1cccc(NC(=O)c2cccs2)c1"
## Result > 70%

## Task Report viability at 10 µM, nothing else, for this compound: "CN(C)Cc1ccccc1CNC(=O)c1cccc(NC(=O)c2cccs2)c1"
## Result > 70%

As a next step, examine the compound that follows.
## Task Give viability at 10 µM for the following compound: "CCN(CC)Cc1ccccc1CNC(=O)c1cc(Cl)cc(NC(=O)c2ccc(F)cc2)c1"
## Result > 70%

* * *

TARGET_OR_SYSTEM: Cholinesterase (Homo sapiens)
Sequence (P06276 whole entry): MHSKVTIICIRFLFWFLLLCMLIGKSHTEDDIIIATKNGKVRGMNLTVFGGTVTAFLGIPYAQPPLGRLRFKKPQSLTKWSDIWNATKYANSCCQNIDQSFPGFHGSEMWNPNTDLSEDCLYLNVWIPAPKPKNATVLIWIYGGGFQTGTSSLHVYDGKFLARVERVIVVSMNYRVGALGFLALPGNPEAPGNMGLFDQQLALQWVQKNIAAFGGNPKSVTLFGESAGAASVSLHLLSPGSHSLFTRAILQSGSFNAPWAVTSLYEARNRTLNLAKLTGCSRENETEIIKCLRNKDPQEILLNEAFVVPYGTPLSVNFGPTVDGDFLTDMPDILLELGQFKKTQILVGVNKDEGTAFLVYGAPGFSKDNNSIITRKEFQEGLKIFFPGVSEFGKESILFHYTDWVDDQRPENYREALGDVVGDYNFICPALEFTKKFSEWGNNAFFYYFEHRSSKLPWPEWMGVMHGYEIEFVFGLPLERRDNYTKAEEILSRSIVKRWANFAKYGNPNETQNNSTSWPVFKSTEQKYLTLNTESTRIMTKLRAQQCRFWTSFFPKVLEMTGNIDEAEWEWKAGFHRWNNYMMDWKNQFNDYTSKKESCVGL
TEST_DESCRIPTION: Inhibition of human BChE using acetylthiocholine iodide or butyrylthiocholine iodide as substrate preincubated for 5 mins followed by substrate addition by Ellman's method
Strictly below 100 nM in IC50: label 1. Otherwise: label 0.

## Task Take the compound "CCN(CC)Cc1ccccc1CNC(=O)c1cccc(NC(=O)c2ccc(F)cc2)c1" and say whether its IC50 is less than 100 nM.
## Result label 1

## Task # check: IC50 < 100 nM for "CCN(CC)Cc1ccccc1NC(=O)c1cccc(NC(=O)c2cccs2)c1"
## Result label 0

## Task Dear reviewer, please state whether "CCN(CC)Cc1ccccc1CNC(=O)c1cc(C#N)cc(NC(=O)c2ccc(F)cc2)c1" has IC50 strictly beneath 100 nM.
## Result label 1

## Task Does "CCN(CC)Cc1ccccc1CNC(=O)c1cccc(C(=O)Nc2cccs2)c1" have IC50 strictly under 100 nM?
## Result label 1

## Task Would you kindly verify if IC50 of "CCN(CC)Cc1cccc(CNC(=O)c2cccc(NC(=O)c3cccs3)c2)c1" is strictly less than 100 nM?
## Result label 0

More entries:
## Task Confirm or reject: IC50 of "CCN(CC)Cc1ccccc1CNC(=O)c1cccc(NC(=O)c2ccc(F)cc2)c1Br" lies strictly below 100 nM
## Result label 0

## Task Determine if "CCN(CC)Cc1ccccc1CNC(=O)c1cc(F)cc(NC(=O)c2ccc(F)cc2)c1" shows IC50 strictly lower than 100 nM.
## Result label 1

## Task Here's an entry: "CCN(CC)Cc1ccc(CNC(=O)c2cccc(NC(=O)c3cccs3)c2)cc1" . Is its IC50 below 100 nM?
## Result label 0

## Task State whether 100 nM exceeds IC50 recorded for "CCN(CC)Cc1ccccc1CNC(=O)c1cc(Br)cc(NC(=O)c2ccc(F)cc2)c1" .
## Result label 1

## Task Lab note: confirm whether the reported IC50 for this compound is below 100 nM, equality not counting. compound: "CCN(CC)Cc1ccccc1CNC(=O)c1cccc(NC(=O)c2ccco2)c1"
## Result label 1

## Task In the record for "CN(C)Cc1ccccc1NC(=O)c1cccc(NC(=O)c2cccs2)c1" , is IC50 less than 100 nM?
## Result label 0

## Task Hi there! Is IC50 for "CCN(CC)Cc1ccccc1CNC(=O)c1cccc(NC(=O)c2ccccc2F)c1" below 100 nM, do you know?
## Result label 1

## Task Consider "CCN(CC)Cc1ccccc1CNC(=O)c1cccc(NC(=O)c2c(F)c(F)c(F)c(F)c2F)c1" . Does its IC50 lie strictly below 100 nM?
## Result label 1

## Task Record "CCN(CC)Cc1ccccc1CNC(=O)c1cc(Cl)cc(NC(=O)c2ccc(F)cc2)c1" : is its IC50 strictly below 100 nM?
## Result label 1

* * *

Recorded measurements of viability at 10 µM, one per entry
TEST_DESCRIPTION: Cytotoxicity against rat PC-12 cells assessed as cell survival rate at 10 uM by MTT assay
Format: toxicity, cell-based
STATED_CONDITIONS: read-out: Activity

## Task Supply recorded viability at 10 µM for "CCN(CC)Cc1ccccc1CNC(=O)c1cccc(NC(=O)c2ccc(OC)cc2)c1" here.
## Result > 70%

* * *

TEST_DESCRIPTION: Permeability of compound incubated for 18 hrs by PAMPA-BBB assay
Type: ADME
STATED_CONDITIONS: read-out: permeability
Papp at 18 h: recorded values
Please state the figure in ×10⁻⁶ cm/s; there is no need to write the unit.

Some solved entries appear below for comparison.
## Task Annotate the compound "CCN(CC)Cc1ccccc1CNC(=O)c1cc(Br)cc(NC(=O)c2ccc(F)cc2)c1" with its measured Papp at 18 h.
## Result 6.93

## Task Output Papp at 18 h of "CN(C)Cc1ccccc1CNC(=O)c1cccc(NC(=O)c2cccs2)c1"
## Result 6.82

## Task Entry "CCN(CC)Cc1ccccc1CNC(=O)c1cccc(NC(=O)c2ccc(I)cc2)c1" needs its Papp at 18 h filled in; supply it.
## Result 10.1

## Task Please look at this compound and report its Papp at 18 h: "CCCN(CCC)Cc1ccccc1CNC(=O)c1cccc(NC(=O)c2cccs2)c1"
## Result 8.69

More entries:
## Task Please report the measured Papp at 18 h for "CCN(CC)Cc1ccccc1CNC(=O)c1cc(C)cc(NC(=O)c2ccc(F)cc2)c1"
## Result 9.17

## Task State its Papp at 18 h for this compound: "CCN(CC)Cc1ccccc1CNC(=O)c1cc(Cl)cc(NC(=O)c2ccc(F)cc2)c1"
## Result 7.54

* * *

TARGET_OR_SYSTEM: Cholinesterase (Equus caballus, UniProt P81908)
TEST_DESCRIPTION: Inhibition of horse serum BChE using acetylthiocholine iodide or butyrylthiocholine iodide as substrate preincubated for 5 mins followed by substrate addition by Ellman's method
I'd appreciate it if you marked entries MET when IC50 is lower than 1 nM and NOT MET when it is not.

These recorded examples may help you get a feel for the data.
## Task Take the molecule "CCN(CC)Cc1ccccc1CNC(=O)c1cccc(NC(=O)c2ccccc2F)c1" and say whether its IC50 is less than 1 nM.
## Result NOT MET

## Task Bench note: check whether "CCN(CC)Cc1ccccc1CNC(=O)c1cc(Cl)cc(NC(=O)c2ccc(F)cc2)c1" shows IC50 below 1 nM
## Result MET

## Task Determine whether this molecule shows IC50 lower than 1 nM (ties excluded): "CCN(CC)Cc1ccccc1CNC(=O)c1cccc(NC(=O)c2ccccc2)c1"
## Result MET

## Task Determine whether this molecule shows IC50 lower than 1 nM (ties excluded): "CCN(CC)Cc1ccccc1CNC(=O)c1cccc(NC(=O)c2ccc(Br)cc2)c1"
## Result MET

## Task Lab note: IC50 threshold 1 nM. Does this molecule come in strictly under it? "CCCN(CCC)Cc1ccccc1NC(=O)c1cccc(NC(=O)c2cccs2)c1"
## Result NOT MET

## Task Bench note: check whether "CCN(CC)Cc1ccccc1CNC(=O)c1cc(Br)cc(NC(=O)c2ccc(F)cc2)c1" shows IC50 below 1 nM
## Result MET

## Task is_below(IC50, 1 nM) for "CCN(CC)Cc1ccccc1CNC(=O)c1cc(NC(=O)c2ccc(F)cc2)cc(OC)c1" ?
## Result MET

## Task Report whether reported IC50 is lower than 1 nM (strictly) for "CCN(CC)Cc1ccccc1CNC(=O)c1cccc(NC(=O)c2ccc(I)cc2)c1"
## Result MET

## Task I'd appreciate it if you could check whether "CCN(CC)Cc1ccccc1CNC(=O)c1cc(F)cc(NC(=O)c2ccc(F)cc2)c1" has IC50 smaller than 1 nM.
## Result MET

## Task Lab note: confirm whether the reported IC50 for this molecule is below 1 nM, equality not counting. molecule: "CCN(CC)Cc1ccccc1CNC(=O)c1cccc(NS(=O)(=O)c2cccs2)c1"
## Result NOT MET

Continuing:
## Task Given "Cc1ccccc1NC(=O)c1cccc(NC(=O)c2cccs2)c1" , is recorded IC50 strictly lower than 1 nM?
## Result NOT MET

## Task Strictly below 1 nM: is that where IC50 of "CCN(CC)Cc1ccccc1CNC(=O)c1cc(NC(=O)c2ccc(F)cc2)ccc1C" sits?
## Result NOT MET
